# Kd listing for each entry below
TARGET OR SYSTEM: T1, hCD138 (human Syndecan-1), extracellular domain (human) (UniProt P18827)
T1 sequence: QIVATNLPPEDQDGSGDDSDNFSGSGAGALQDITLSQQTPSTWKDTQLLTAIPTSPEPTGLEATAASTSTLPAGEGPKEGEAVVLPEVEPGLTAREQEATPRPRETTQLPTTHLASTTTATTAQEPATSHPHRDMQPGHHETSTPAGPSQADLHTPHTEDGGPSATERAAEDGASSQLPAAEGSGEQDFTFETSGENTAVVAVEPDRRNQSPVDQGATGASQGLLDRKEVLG
EXPERIMENTAL DETAILS: SPR; bivalent (avidity) set-up: CD138 amine-coupled to CM5 chip (240 RU), IgG as analyte 33-300 nM; Biacore T200, HBS-P+ pH 7.4, 25 °C; 1:1 Langmuir model
The figure you give is taken to be in nM; do not add the unit.

Some entries whose results are on file:
<CD138> Ha-La (antibody, V domains shown) VH: QVQLQQSGSELMMPGASVKISCKATGYTFSNYWIEWVKQRPGHGLEWIGEILPGTGSTIYNEKFKGKATFTADISSNTVQMQLSSLTSEDSAVYYCARRDYYGNFYYAMDYWGQGTSVTVSS VL: DIQMTQSTSSLSASLGDRVTISCSASQGINNYLNWYQQKPDGTVELLIYYTSTLHSGVPSRFSGSGSGTDYSLTISNLEPEDIGTYYCQQYSKLPRTFGGGTKLEIK | 0.4
<CD138> Hb-La (antibody, V domains shown) VH: QVQLQQSGSELMMPGASVKISCKATGYTFTGYWIEWVKQRPGHGLEWIGEILPGTGRTIYNEKFKGKATFTADISSNTVQMQLSSLTSEDSAVYYCARRDYYGNFYYAMDYWGQGTSVTVSS VL: DIQMTQSTSSLSASLGDRVTISCSASQGINNYLNWYQQKPDGTVELLIYYTSTLHSGVPSRFSGSGSGTDYSLTISNLEPEDIGTYYCQQYSKLPRTFGGGTKLEIK | 0.31

Here's the next entry for you.
Query :: What Kd value was documented for this binder, <CD138> Ha-Lw (antibody, V domains shown) VH: QVQLQQSGSELMMPGASVKISCKATGYTFSNYWIEWVKQRPGHGLEWIGEILPGTGSTIYNEKFKGKATFTADISSNTVQMQLSSLTSEDSAVYYCARRDYYGNFYYAMDYWGQGTSVTVSS VL: DIQMTQSTSSLSASLGDRVTISCSASQGINNYLNWYQQKPDGTVELLIYYTSTLQSGVPSRFSGSGSGTDYSLTISNLEPEDIGTYYCQQYSKLPRTFGGGTKLEIK ?
Result :: 0.42

Source: paper PMC6784197
